Please provide measured abundance fitness for the entries that follow.
B1: Poly(rC)-binding protein 1, residues 278 to 350; numbered along this chain, Q15365 (parent)
chain: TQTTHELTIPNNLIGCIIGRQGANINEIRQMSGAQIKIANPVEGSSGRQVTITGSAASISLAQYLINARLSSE

Variants of: B1
assayNotes: abundance fitness (aPCA) (normalised: wild type 0, dead -1); higher = more abundant; growth selection in yeast, the domain comes from the species named
testParameters: Homo sapiens
Number, no unit, nothing else.

Need abundance fitness, item L65S
-0.582

Queued: Y64E
0.298

Follow-up item: Q35I
-0.104
